Values were extracted from patent US20090170219.

# System: IgG Fc fragment (IgG-Fc) (human), P01857-1
# Procedure text: SPR
# Experimental parameters: 2'-F at all pyrimidines; solution A
Measurement kind: Kd (nM)

> print(dat)
                        biopolymer.sequence  reading.unit  quantitative.result
1  GGGACACAAUGGACGGCUGGUAAGGUGCUCGGAAUGGAACUCGUCAUUCGGAACUUAACGGCCGACAUGAGAG [SEQ ID NO:6]            nM                    3
2  GGGACACAAUGGACGUCAAAGAAGAGGUGCUCUGCGAGCCACGCGGAACUCUAUAACGGCCGACAUGAGAG [SEQ ID NO:2]            nM                  7.4
3  GGGACACAAUGGACGGCCAACGUUAACUGGAACUGUAAAUCAGGUGCUCGAGAUAACGGCCGACAUGAGAG [SEQ ID NO:4]            nM                0.006
4  GGGACACAAUGGACGAAAGGUGCUCCAACUAAAUUUGGAACUUUCCACCCAUAAUAACGGCCGACAUGAGAG [SEQ ID NO:8]            nM                    7
